# ASSAYED_TARGET: T1, hexa-His-tagged 14-3-3ζ (UniProt P63104 1-245)
# T1 construct: 14-3-3 protein zeta; expressed and purified essentially as in Kostelecky et al., 2009; eluted as a dimer of ~60 kDa; the ITC methods call it 'the 14-3-3ζ domain'; source: E. coli BL21(DE3) Star, purified (HisTrap, size-exclusion chromatography)
# T1 sequence: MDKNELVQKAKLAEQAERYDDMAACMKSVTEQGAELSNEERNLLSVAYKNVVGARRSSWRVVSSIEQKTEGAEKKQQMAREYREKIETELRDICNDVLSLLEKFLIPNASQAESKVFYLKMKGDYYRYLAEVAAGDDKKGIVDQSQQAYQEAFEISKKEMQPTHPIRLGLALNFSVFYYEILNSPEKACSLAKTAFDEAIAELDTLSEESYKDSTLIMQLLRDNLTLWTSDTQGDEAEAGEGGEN
# PROTOCOL_NOTES: BLI; Octet RED96; biotinylated peptides immobilised on streptavidin-coated biosensors (1 μg/ml, 300 s); dilution series of 14-3-3ζ for 300 s, dissociation 300 s; BI buffer 25 mM Tris, 150 mM NaCl, 0.1% Tween-20; data of a typical experiment (n ≥ 3)
# APPLIED_CONDITIONS: both partners purified
pKd: −log10 of the molar value. Square brackets hold non-standard residues; d marks the D form. Ends that are not written are not given here. * marks the point of attachment. Geranylgeranyl = CC(C)=CCC/C(C)=C/CC/C(C)=C/CC/C(C)=C/C*; Biotin = O=C1N[C@H]2[C@H](CS[C@H]2CCCCC(=O)*)N1; pT = C[C@@H](OP(=O)(O)O)[C@H](N)C(=O)O; pS = N[C@@H](COP(=O)(O)O)C(=O)O; Ahx = NCCCCCC(=O)O
Class Met: pKd at least 7. Class Not met: pKd below 7.

Reference set, count: 3
{Biotin-Ahx}-EKKKPKKK[pS]C(Geranylgeranyl) (also called Rap1A+P+GG; source: synthetic peptide) | Met
{Biotin-Ahx}-PGKARKKS[pS]C(Geranylgeranyl) (source: synthetic peptide) | Not met
{Biotin-Ahx}-GGDDKKSK[pT]C(Geranylgeranyl) (source: synthetic peptide) | Met

Here is another binder to look at.
Determine whether this binder has pKd no lower than 7: {Biotin-Ahx}-PTPIKRGR[pS]C(Geranylgeranyl) (source: synthetic peptide)
Not met

// provenance: paper PMC3690454
